Tested on: MCF7
PROTOCOL DETAILS: Antiproliferative activity against human MCF7 cells
Type: functional, cell-based
READOUT: pIC50
Lab note — pIC50 values are minus log10 of concentrations in M.

Problem: Fill in: pIC50 of c1ccc(Nc2nc(-c3c[nH]c4ccccc34)cs2)cc1 is ___
Result: 5.73

###

PROTOCOL DETAILS: Cytotoxicity against mouse NIH/3T3 cells measured after 72 hrs by MTT assay
Format: toxicity, cell-based, NIH3T3
READOUT: IC50 at 72 h

Problem: Look up IC50 at 72 h for this compound: N#Cc1ccc(Oc2ccc(/C=N/Nc3nc(-c4ccc(C#N)cc4)cs3)cc2)cc1
Result: > 500 mg/L
